# Test Details: LNP average particle size and polydispersity by dynamic light scattering
# Type: physicochemical
# Conditions Used: LNP with 50% ionizable lipid, 38% cholesterol, 9% DSPC, 3% C13 Ether (LNP #1, Compound 53: 3% PEG2K-DMG instead); sgRNA:mRNA 1:2
Readout Kind: PDI (polydispersity index)

Molecule	PDI (polydispersity index)
CCCCCCCCC(CCCCCCCC)OC(=O)CCCC(=O)OCC(COC(=O)CCCC(=O)OC(CCCCCCCC)CCCCCCCC)COC(=O)NCCN(CC)CC [Compound 6]	0.002

(1) CCCCCCCCC(CCCCCCCC)OC(=O)CCCC(=O)OCC(COC(=O)CCCC(=O)OC(CCCCCCCC)CCCCCCCC)COC(=O)OCCCN1CCCC1 [Compound 33]
(2) CCCCCCCCC(CCCCCCCC)OC(=O)CCCCCCC(=O)OCC(CC)(COC(=O)CCCCCCC(=O)OC(CCCCCCCC)CCCCCCCC)COC(=O)OCCCN1CCCC1 [Compound 67]
Which of these two has the smaller recorded PDI (polydispersity index): 1 or 2 ? // caller expects the label of the chosen entry
1
(1: 0.01, 2: 0.03)

* * *

# Test Details: LNP average particle size and polydispersity by dynamic light scattering
# Format: physicochemical
# Conditions Used: Table 3, Experiments 1-13; LNP 50% ionizable lipid, 38% cholesterol, 9% DSPC, 3% PEG2K-DMG; sgRNA:mRNA 1:2
Readout Kind: Z-avg (nm)

Guide cases for Z-avg, answers given:
Compound	Reading Unit	Z-avg
CCCCCCCCC(CCCCCCCC)OC(=O)CCCCCCC(=O)OCC(COC(=O)CCCCCCC(=O)OC(CCCCCCCC)CCCCCCCC)COC(=O)NCCN(CC)CC	nm	87
CCCCCCCCOC(CCC(=O)OCC(COC(=O)CCC(OCCCCCCCC)OCCCCCCCC)COC(=O)NCCN(CC)CC)OCCCCCCCC	nm	82
CCCCC/C=C\C/C=C\CCCCCCCC(=O)OCC(CCCCCCCCC(=O)OC(CCCCCC)CCCCCC)COC(=O)OCCCN(CC)CC (stereo not drawn)	nm	71

(P) CCCCCCCCC(CCCCCCCC)OC(=O)CCCC(=O)OCC(COC(=O)CCCC(=O)OC(CCCCCCCC)CCCCCCCC)COC(=O)NCCN1CCCCC1
(Q) CCCCCCCCC(CCCCCCCC)OC(=O)CCCC(=O)OCC(C)(COC(=O)CCCC(=O)OC(CCCCCCCC)CCCCCCCC)COC(=O)NCCN(CC)CC
Which of these two has the smaller recorded Z-avg: P or Q ? // caller expects the label of the chosen entry
P

* * *

# Tested on: rat TTR
# Test Details: Serum TTR level after LNP delivery (Rat Prealbumin (Transthyretin) ELISA)
# Type: in vivo, rat (Sprague-Dawley)
# Conditions Used: Experiment 5, 0.1 mpk, LNP with PEG2K-DMG
Readout Kind: Serum TTR (µg/mL)
Kindly answer with a numeric value in µg/mL, unit omitted.

Guide cases for Serum TTR, answers given:
Compound	Target Or System	Readout Kind	Test Result
CCCCC/C=C\C/C=C\CCCCCCCC(=O)OCC(CCCCCCCCC(=O)OC(CCCCCCCC)CCCCCCCCC)COC(=O)CCC(CCCCCCCC)OC(=O)NCCN1CCCC1 (centres unmarked)	rat TTR	Serum TTR	998.3
CCCCC/C=C\C/C=C\CCCCCCCC(=O)OCC(CCCCCCCCC(=O)OC(CCCCCCCC)CCCCCCCCC)COC(=O)CCC(CCCCCCCC)OC(=O)NCCN(C)CC (centres unmarked)	rat TTR	Serum TTR	1352.4
CCCCC/C=C\C/C=C\CCCCCCCC(=O)OCC(CCCCCCCCC(=O)OC(CCCCCCCC)CCCCCCCCC)COC(=O)CCC(CCCC)OC(=O)NCCN(C)CC (centres unmarked)	rat TTR	Serum TTR	502.9
CCCCC/C=C\C/C=C\CCCCCCCC(=O)OCC(COC(=O)CCC(OCCCCCCCC)OCCCCCCCC)COC(=O)OCCCN(CC)CC (centres unmarked)	rat TTR	Serum TTR	624.1

Proceed to the following item.
Reported Serum TTR for rat TTR, given CCCCC/C=C\C/C=C\CCCCCCCC(=O)OCC(CCCCCCCCC(=O)OC(CCCCCCCC)CCCCCCCCC)COC(=O)CCC(CCCC)OC(=O)NCCN1CCCC1 (centres unmarked) ?
294.3

Recorded values, source patent US20260337153A1.
